Just for reference, patent US20190300590A1 is where these values come from.

Provide the recorded pStat3 HTRF IC50 for the entries that follow.
- ASSAYED_TARGET: T1, IL-23R on DB cells (human, UniProt Q5VWK5 24-629)
- T1 sequence (looked up): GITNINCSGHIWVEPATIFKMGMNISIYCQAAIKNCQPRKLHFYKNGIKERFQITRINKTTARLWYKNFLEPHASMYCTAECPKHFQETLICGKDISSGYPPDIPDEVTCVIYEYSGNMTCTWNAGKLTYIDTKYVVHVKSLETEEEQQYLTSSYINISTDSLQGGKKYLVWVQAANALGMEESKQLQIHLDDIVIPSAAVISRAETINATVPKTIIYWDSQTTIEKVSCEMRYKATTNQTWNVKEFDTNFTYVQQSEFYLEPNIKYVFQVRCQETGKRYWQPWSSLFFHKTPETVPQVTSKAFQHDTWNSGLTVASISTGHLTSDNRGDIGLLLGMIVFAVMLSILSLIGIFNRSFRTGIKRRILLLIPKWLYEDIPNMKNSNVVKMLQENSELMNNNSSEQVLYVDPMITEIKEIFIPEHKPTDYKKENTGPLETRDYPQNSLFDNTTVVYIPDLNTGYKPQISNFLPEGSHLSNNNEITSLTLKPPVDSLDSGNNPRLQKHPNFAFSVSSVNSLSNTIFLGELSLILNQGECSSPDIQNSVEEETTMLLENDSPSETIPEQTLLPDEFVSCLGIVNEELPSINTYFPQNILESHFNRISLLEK
- ASSAY_COMMENT: cell-based or functional assay
*1 amine or outer side, *2 acyl side, *3 side chain or, on linkers, in order; H or OH if unused. Bridges are numbered along the chain shown (N, C = ends). Primed or numbered codes have the meaning given here. [ ]: non-standard residue; d: D form. Phe(4-(2-acetylaminoethoxy))″ = 4-(2-acetylaminoethoxy)phenylalanine, CC(=O)NCCOc1ccc(C[C@H](N[*:1])C(=O)[*:2])cc1; 2Nal = N[C@@H](Cc1ccc2ccccc2c1)C(=O)O; AEF = NCCOc1ccc(C[C@H](N)C(=O)O)cc1; Pen = CC(C)(S)[C@H](N)C(=O)O; αMeK = C[C@](N)(CCCCN)C(=O)O; Dap = NC[C@H](N)C(=O)O; Aib = CC(C)(N)C(=O)O

*Q* Which pStat3 HTRF IC50 is reported for this binder? Ac-[dR][Pen]QTWQ[Pen][AEF][2Nal][Aib]K(Ac)NN-NH2 (disulfide 2-7; SMILES CC(=O)NCCCC[C@H](NC(=O)C(C)(C)NC(=O)[C@H](Cc1ccc2ccccc2c1)NC(=O)[C@H](Cc1ccc(OCCN)cc1)NC(=O)[C@H]1NC(=O)[C@H](CCC(N)=O)NC(=O)[C@H](Cc2c[nH]c3ccccc23)NC(=O)[C@H]([C@@H](C)O)NC(=O)[C@H](CCC(N)=O)NC(=O)[C@@H](NC(=O)[C@@H](CCCNC(=N)N)NC(C)=O)C(C)(C)SSC1(C)C)C(=O)N[C@@H](CC(N)=O)C(=O)N[C@@H](CC(N)=O)C(N)=O) [Ac-(D)Arg-[Pen]-QTWQ-[Pen]-[Phe[4-(2-aminoethoxy)]-[2-Nal]-[Aib]-[Lys(Ac)]-NN-NH2]
*A* < 10 nM

*Q* Continue with Ac-[Pen][Dap](Ac)TWQ[Pen][Phe(4-(2-acetylaminoethoxy))″][2Nal][αMeK](Ac)ENG-NH2 (disulfide 1-6 (inferred)) [Ac-[Pen]-Dap(Ac)TWQ-[Pen]-[Phe[4-(2-acetylaminoethoxy)]-[2-Nal]-[α-MeLys(Ac)]-ENG-NH2]
*A* < 10 nM

*Q* Again, but for XNTWQXFXLKNA (Ac; Pen-Pen disulfide; Phe(4-OMe); 2-Nal; hLeu; Lys(Ac); βAla; NH2) [Ac-[Pen]-NTWQ-[Pen]-[Phe(4-OMe)]-[2-Nal]-[hLeu]-[Lys(Ac)]-N-[βAla]-NH2]
*A* < 10 nM

*Q* Another: XQTWQXFXLQNN (Ac; Pen-Pen disulfide; Phe[4-(2-aminoethoxy)]; 2-Nal; α-MeLeu; NH2) [Ac-[Pen]-QTWQ-[Pen]-[Phe[4-(2-aminoethoxy)]-[2-Nal]-[α-MeLeu]-QNN-NH2]
*A* < 10 nM

*Q* Could you do the same for XQTWQXFXXENN (Ac; Pen-Pen disulfide; Phe[4-(2-aminoethoxy)]; 2-Nal; Aib; NH2) [Ac-[Pen]-QTWQ-[Pen]-[Phe[4-(2-aminoethoxy)]-[2-Nal]-[Aib]-ENN-NH2] , please?
*A* < 10 nM

*Q* Moving on to the next binder: XNTWQXFXXKNN (Ac; Pen-Pen disulfide; Phe[4-(2-aminoethoxy)]; 2-Nal; Aib; Lys(Ac); NH2) [Ac-[Pen]-NTWQ-[Pen]-[Phe[4-(2-aminoethoxy)]-[2-Nal]-[Aib]-[Lys(Ac)]-NN-NH2]
*A* < 10 nM

*Q* What do you get for XQTWQXYXXENG (Ac; Pen-Pen disulfide; 2-Nal; α-MeOrn; NH2) [Ac-[Pen]-QTWQ-[Pen]-Y-[2-Nal]-[α-MeOrn]-ENG-NH2] ?
*A* 10 to 25 nM

*Q* Repeat for the following binder: XNTWQXFXXKNA (Ac; Pen-Pen disulfide; Phe[4-(2-aminoethoxy)]; 2-Nal; Aib; Lys(Ac); βAla; NH2) [Ac-[Pen]-NTWQ-[Pen]-[Phe[4-(2-aminoethoxy)]-[2-Nal]-[Aib]-[Lys(Ac)]-N-[βAla]-NH2]
*A* < 10 nM

*Q* Lookup EXQTWQXFXKKNG (N-terminal pyroglutamic acid; Pen-Pen disulfide; Phe(4-OMe); 2-Nal; α-MeLys; Lys(Ac); NH2) [pyroglutamic acid-[Pen]-QTWQ[Pen]-[Phe(4-OMe)]-[2-Nal]-[α-MeLys]-[Lys(Ac)]-NG-NH2]
*A* < 10 nM

*Q* Okay, and XNTWQXFXXKNQ (Ac; Pen-Pen disulfide; Phe(4-OMe); 2-Nal; Aib; Lys(Ac); NH2) [Ac-[Pen]-NTWQ-[Pen]-[Phe(4-OMe)]-[2-Nal]-[Aib]-[Lys(Ac)]-NQ-NH2] ?
*A* < 10 nM

*Q* Try XNTWQXFXLKNA (Ac; Pen-Pen disulfide; Phe[4-(2-aminoethoxy)]; 2-Nal; hLeu; Lys(Ac); βAla; NH2) [Ac-[Pen]-NTWQ-[Pen]-[Phe[4-(2-aminoethoxy)]-[2-Nal]-[hLeu]-[Lys(Ac)]-N-[βAla]-NH2] next.
*A* < 10 nM
